Origin of measurements: paper doi:10.1101/2024.08.19.608619

Assay: in vitro
Settings: human
Examples of compounds with documented CC50 follow.

// solved cases for CC50 follow
> print(dat)
                                   compound  measured
1  CC(C)C(Nc1ncnc2[nH]ccc12)c1ccc2c(c1)NC(=O)CO2 (stereo not shown) [ASAP-0008302]   > 50 µM
2  CC(C)C(Nc1ncnc2[nH]ccc12)c1ccc2c(c1)S(=O)(=O)CCC2 (stereo not shown) [ASAP-0008327]   > 50 µM
3  CCNC(=O)c1cc2c(NC(c3ccc4c(c3)S(=O)(=O)CCC4)C(C)C)ncnc2[nH]1 (stereo not shown) [ASAP-0012349]   > 20 µM

// next item, CC50 requested
Noted for CCNC(=O)c1cc2c(NC(c3ccc4c(c3)OCCO4)C(C)C)ncnc2[nH]1 (stereo not shown) [ASAP-0008444] : its CC50 reads > 20 µM

###

Test system: HeLa-ACE2 cells
Details: protocol HeLa-ACE2 cytotoxicity
Measured quantity: CC50

Use the examples below as a reference point.
> print(dat)
                                   compound  measured
1  CNC(=O)c1cccc(-c2cc3c(N[C@@H](c4ccc5c(c4)S(=O)(=O)CCC5)C(C)C)ncnc3[nH]2)c1   > 20 µM
2  CC(C)[C@@H](Nc1ncnc2[nH]c(-c3cnn(C)c3C#N)cc12)c1ccc2c(n1)OCCO2   > 50 µM
3  CNCc1cc(-c2cc3c(N[C@@H](c4ccc5c(c4)S(=O)(=O)CCC5)C(C)C)ncnc3[nH]2)co1   > 20 µM

Input CC(C)[C@@H](Nc1ncnc2[nH]c(C(=O)N[C@H]3CCN(C)C3)cc12)c1ccc2c(c1)S(=O)(=O)CCC2 (single isomer, unassigned) . Output CC50: > 20 µM

Kindly note the recorded CC50 for "CC(C)[C@@H](Nc1ncnc2[nH]c(-c3cnn(CCC(N)=O)c3)cc12)c1ccc2c(c1)OCCO2" , which is > 20 µM

Lab note: measured CC50 of CC(C)[C@@H](Nc1ncnc2[nH]c(-c3cnn(C)c3)cc12)c1ccc2c(c1)S(=O)(=O)CCC2 (single isomer, unassigned) was > 20 µM

Short answer for Cc1nn(C)cc1-c1cc2c(N[C@H](c3ccc4c(c3)S(=O)(=O)CCC4)C(C)C)ncnc2[nH]1 (single isomer, unassigned) : CC50 was > 20 µM

Lab book: CC50 of Cc1nn(C)cc1-c1cc2c(NC(c3ccc4c(c3)S(=O)(=O)CCC4)C(C)C)ncnc2[nH]1 (stereo not shown) noted as > 20 µM

Data point: "CC(C)[C@@H](Nc1ncnc2[nH]c(-c3cnn(CC(N)=O)c3)cc12)c1ccc2c(c1)OCCO2" ; CC50 = > 50 µM

# CC50 (compound: CC(C)[C@H](Nc1ncnc2[nH]c(-c3cnn(CC(N)=O)c3)cc12)c1ccc2c(c1)S(=O)(=O)CCC2 (single isomer, unassigned) ) is > 20 µM

###

Assay: In vitro rat hepatocyte stability
Format: in vitro ADME
Measured quantity: clint (uL/min/1E6 cells)
All answers are understood in uL/min/1E6 cells, so give the number only.

> print(dat)
                                   compound  measured.quantity        value.unit  measured
1  CC(C)[C@H](Nc1ncnc2[nH]ccc12)c1ccc2c(c1)S(=O)(=O)CCC2 [ASAP-0008674]              clint  uL/min/1E6 cells      75.8
2  CC(C)C(Nc1ncnc2[nH]c(C(=O)NC3CCN(C)C3)cc12)c1ccc2c(c1)S(=O)(=O)CCC2 (centres unmarked) [ASAP-0011198]              clint  uL/min/1E6 cells       9.3
3  CC(C)[C@@H](Nc1ncnc2[nH]c(-c3cnn(C)c3C#N)cc12)c1ccc2c(n1)OCCO2 [ASAP-0010716]              clint  uL/min/1E6 cells     182.0
4  CNCc1cc(-c2cc3c(N[C@@H](c4ccc5c(c4)S(=O)(=O)CCC5)C(C)C)ncnc3[nH]2)co1 [ASAP-0011176]              clint  uL/min/1E6 cells      15.6

Quick note, clint for CC(C)[C@H](Nc1ncnc2[nH]c(-c3cnn(C)c3C#N)cc12)c1ccc2c(n1)OCCO2 [ASAP-0010715] landed at 87.5

Record Cn1ncc(-c2cc3c(N[C@@H](c4ccc5c(n4)OCCO5)C(C)(C)C)ncnc3[nH]2)c1C#N [ASAP-0011221] . Reported clint: 185.0
